# EXPERIMENTAL TARGET: human M4 receptor (Homo sapiens)
# Construct: expressed in transfected cells; host or cells: CHO cells
# Sequence (P08173 whole entry): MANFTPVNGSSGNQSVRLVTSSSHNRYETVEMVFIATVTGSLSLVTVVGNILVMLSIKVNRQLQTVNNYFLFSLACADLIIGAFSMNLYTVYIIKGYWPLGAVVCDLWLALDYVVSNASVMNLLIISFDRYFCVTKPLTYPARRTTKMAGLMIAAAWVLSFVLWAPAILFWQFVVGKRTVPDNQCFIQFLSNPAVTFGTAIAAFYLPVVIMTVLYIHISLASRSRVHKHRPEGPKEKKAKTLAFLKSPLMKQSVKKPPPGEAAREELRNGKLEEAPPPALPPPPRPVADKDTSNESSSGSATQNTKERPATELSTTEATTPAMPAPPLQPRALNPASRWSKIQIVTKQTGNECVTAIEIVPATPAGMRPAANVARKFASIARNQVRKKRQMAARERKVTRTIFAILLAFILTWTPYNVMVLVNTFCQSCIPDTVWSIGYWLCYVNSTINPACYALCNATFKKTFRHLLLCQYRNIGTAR
# ASSAY OVERVIEW: Radioligand ([3H]N-methylscopolamine) binding assay, membranes from CHO cells expressing human M4 receptor
# CONDITION PARAMETERS: Ki against human M4 receptor; membranes from CHO cells; tritiated N-methylscopolamine 1.5 nM; read-out: K
ASSAY READOUT: Ki

Study these solved cases before continuing.
[[record]]
compound = "C[C@@H]1CN(c2cnc(C(F)(F)F)cn2)CCN1C(=O)NC1CC2(C1)CN(Cc1ccc(Cl)cc1)C2 [Compound 261]"
assay_readout = "Ki"
experimental_value = "10 to 100 nM"

[[record]]
compound = "C[C@@H]1CN(c2cnc3ccccc3n2)CCN1C(=O)NC1CC2(C1)CN(Cc1ccccc1)C2 [Compound 224]"
assay_readout = "Ki"
experimental_value = "10 to 100 nM"

[[record]]
compound = "C[C@@H]1CN(c2ncc(C(F)(F)F)c(N)n2)C[C@H](C)N1C(=O)OC1CC2(C1)CN(Cc1ccccc1)C2 [Compound 463]"
assay_readout = "Ki"
experimental_value = "< 10 nM"

[[record]]
compound = "C[C@@H]1CN(c2ncc(OC(F)F)cn2)C[C@H](C)N1C(=O)NC1CC2(C1)CN(Cc1ccccc1)C2 [Compound 247]"
assay_readout = "Ki"
experimental_value = "10 to 100 nM"

[[record]]
compound = "C[C@@H]1CN(c2cnc(C(F)(F)F)cn2)[C@@H](C)CN1C(=O)OC1(C(F)F)CC2(CN(Cc3ccccc3)C2)C1 [Compound 347]"
assay_readout = "Ki"
experimental_value = "100 to 1000 nM"


Answer for every listed entry: what is its Ki? The entries follow.
1. C[C@@H]1CN(c2ncc(C(F)(F)F)c(N)n2)C[C@H](C)N1C(=O)NC1CC2(C1)CN(Cc1ccccc1)C2 [Compound 248]
2. C[C@@H]1CN(c2ncc(C#N)cn2)C[C@H](C)N1C(=O)OC1CC2(C1)CN(Cc1ccccc1)C2 [Compound 130]
3. Cc1ccsc1CN1CC2(CC(NC(=O)N3[C@H](C)CN(c4ncc(C(F)(F)F)cn4)C[C@@H]3C)C2)C1 [Compound 338]
4. C[C@@H]1CN(c2ncc(C(F)(F)F)cn2)[C@@H](C)CN1C(=O)OC1CC2(C1)CN(Cc1ccccc1)C2 [Compound 136]
5. C[C@@H]1CN(c2ncc(F)cn2)C[C@H](C)N1C(=O)OC1CC2(C1)CN(Cc1ccc(F)cc1)C2 [Compound 468]
6. C[C@@H]1CN(c2ncc(C(F)(F)F)cn2)[C@@H](C)CN1C(=O)OC1(C(F)F)CC2(CN(Cc3ccccc3)C2)C1 [Compound 346]
7. C[C@@H]1CN(c2cnc(OC(F)(F)F)cn2)C[C@@H](C)N1C(=O)OC1CC2(C1)CN(Cc1ccccc1)C2 [Compound 203]

Found:
1. < 10 nM
2. 10 to 100 nM
3. < 10 nM
4. < 10 nM
5. 10 to 100 nM
6. 10 to 100 nM
7. < 10 nM

Items follow; give Ki for each.
1. C[C@@H]1CN(c2ncc(OCC3CC3)cn2)C[C@H](C)N1C(=O)OC1CC2(C1)CN(Cc1ccccc1)C2 [Compound 499]
2. C[C@@H]1CN(c2ncc(C(F)(F)F)cn2)C[C@H](C)N1C(=O)NC1CC2(C1)CN(Cc1cccnc1Cl)C2 [Compound 291]

Found:
["< 10 nM", "100 to 1000 nM"]
